Test system: cancer cell lines
ASSAY EXPLANATION: Cancer cell proliferation activity (CellTiterGlo, 72 h)
Format: cell-based
ASSAY CONDITIONS: Homo sapiens, A-375, 72 h, A375 (skin), 72 h; read-out: IC50 cell proliferation
Description: Dose response relationships on cell proliferation was assessed for representative Compounds of the Disclosure on cancer cell lines. […] Cells were cultured in the appropriate media. […] After incubation for 72 h at 37° C. at 5% or 10% CO2 dependent on the medium, cell plates were equilibrated to room temperature for one hour, CellTiterGlo reagent (Promega) was added and luminescence was measured approximately an hour later using a luminometer. […]
MEASURED METRIC: IC50 (µM)

Please review the entries below; each comes with its answer.
COMPOUND	TESTED ON	ENDPOINT RESULT
C[C@]1(CO)O[C@@H](n2cnc3c(N)nc(F)nc32)[C@H](O)[C@@H]1O [Cpd. No. 178]	cancer cell lines	0.04
Nc1ccn([C@H]2C[C@H](O)[C@](CO)(CF)O2)c(=O)n1 [Cpd. No. 198]	cancer cell lines	0.71
CCC[C@]1(CO)O[C@@H](n2cnc3c(N)nc(F)nc32)[C@H](O)[C@@H]1O [compound 195]	cancer cell lines	0.11
Nc1nc(F)nc2c1ncn2[C@@H]1O[C@H](CO)[C@@H](O)[C@H]1O [compound 184]	cancer cell lines	0.04
Nc1nc(=O)n([C@H]2C[C@H](O)[C@@H](CO)O2)cc1F [compound 169]	cancer cell lines	0.007
Nc1nc(F)nc2c1ncn2[C@@H]1O[C@H](CO)[C@@H](O)[C@@H]1O [compound 170]	cancer cell lines	9.75

I = Nc1nc(F)nc2c1ncn2[C@H]1C[C@H](O)[C@@H](CO)O1 [compound 171]
II = C[C@]1(CO)O[C@@H](n2ccc(N)nc2=O)[C@@H](O)[C@@H]1O [Cpd. No. 193]
III = Nc1nc(=O)n([C@H]2C[C@H](O)[C@](CO)(CF)O2)cc1F [Cpd. No. 197]
Reorder the items by IC50, least to greatest. Your reply should list the labels following the order given in the request.
III, I, II

* * *

Tested on: cancer cell lines
ASSAY EXPLANATION: Cancer cell proliferation activity (CellTiterGlo, 72 h)
Type: cell-based
ASSAY CONDITIONS: Homo sapiens, OVCAR-3, 72 h, OVCAR3 cell line (ovary), 72 h; read-out: IC50
MEASURED METRIC: IC50 (nM)

P = CC[C@]1(CO)O[C@@H](n2cnc3c(N)nc(F)nc32)C[C@@H]1O [Cpd. No. 1]
Q = CC(C)C[C@]1(CO)O[C@@H](n2cnc3c(N)nc(F)nc32)C[C@@H]1O [Cpd. No. 133]
Param metric = IC50; output whichever of P , Q has the minimum value. Pick one and reply with its label.
P

* * *

System: cancer cell lines
ASSAY EXPLANATION: Cancer cell proliferation activity (CellTiterGlo, 72 h)
Type: cell-based
ASSAY CONDITIONS: Homo sapiens, HT-1080, 72 h, HT1080 cell line (connective tissue), 72 h; read-out: IC50
pIC50: −log10 of the molar value.
Listing: pIC50 of selected molecules

Please review the entries below; each comes with its answer.
COMPOUND	pIC50
C[C@]1(CO)O[C@@H](n2cnc3c(N)nc(F)nc32)C[C@@H]1O	< 4.30
CC[C@]1(CO)O[C@@H](n2cc(F)c(N)nc2=O)C[C@@H]1O	< 4.30
C[C@]1(CO)O[C@@H](n2cc(F)c(N)nc2=O)C[C@@H]1O	6.72
CC(C)C[C@]1(CO)O[C@@H](n2cnc3c(N)nc(F)nc32)C[C@@H]1O	< 4.30

Shift focus to the following entry.
Form field: reported pIC50 of "N#C[C@]1(CO)O[C@@H](n2cc(F)c(N)nc2=O)C[C@@H]1O"
< 4.30
